Assay: qHTS assay to identify small molecule agonists of the farnesoid-X-receptor (FXR) signaling pathway - cell viability counter screen (AID 743218); note: nearly all actives have a fitted effect of over 45% in size
Details: FXR-bla HEK293T viability, CellTiter-Glo luminescence, 16 h; series mostly up to 62.6 µM
Records with an inconclusive call do not appear. The source made the active and inactive calls. Calls come from the whole dose curve; as a rule, active = well fitted cell-killing curve with a large enough effect in the repeat runs; inconclusive = weak or mixed curves, or effect the other way; inactive = no such curve, though single readings can be large or run the other way.
Outcome codes: active, inactive

> print(dat)
                                    compound  class.assignment
 1  C#CC(O)(C=CCl)CC (configuration not stated)          inactive
 2                                CCC(C)(C)O          inactive
 3                                 C=C(Cl)Cl          inactive
 4     CCOC(C(=O)OCCN(C)C)(c1ccccc1)c1ccccc1          inactive
 5  CCC(=O)O[C@@H]1C=C2CCC3C(CCC4(C)C3CC[C@@H]4OC(=O)CC)C2CC1 (some centres not stated)          inactive
 6         CCCCCCCCCCCC[N+](C)(C)CCOc1ccccc1            active
 7                      FC(Cl)(Cl)C(F)(Cl)Cl          inactive
 8                O=C(O)COc1cc(Cl)c(Cl)cc1Cl          inactive
 9                 Cc1nnc(-c2ccccc2)c(=O)n1N          inactive
10           C[C@H](N)[C@H](O)c1ccc(O)c(O)c1          inactive
11  O=C([O-])c1ccccn1.O=C([O-])c1ccccn1.O=C([O-])c1ccccn1.[Cr+3]          inactive
12                         CCCCCCCCCCCCN(C)C          inactive
13                 O=S(=O)(c1ccccc1)c1ccccc1          inactive
14                                C=CCSSCC=C          inactive
15        OCC1CO1 (configuration not stated)          inactive
16  CCc1cnc(C2=NC(C)(C(C)C)C(=O)N2)c(C(=O)O)c1 (configuration not stated)          inactive
17  CCC1CCC(=O)O1 (configuration not stated)          inactive
18                          OC[P+](CO)(CO)CO          inactive
19  COC1=CC(=O)O[C@@H](/C=C/c2ccc3c(c2)OCO3)C1          inactive
20  C[N+]1(CCC(C(N)=O)(c2ccccc2)c2ccccc2)CCCCC1          inactive
21                        NCCc1cc(O)c(O)cc1O          inactive
22  CCCN(CCC)c1c([N+](=O)[O-])cc(C(C)C)cc1[N+](=O)[O-]          inactive
23                CC(C)c1ccc(NC(=O)N(C)C)cc1          inactive
24  CCOC(=O)C1OC1(C)c1ccccc1 (configuration not stated)          inactive
25                  CCC1(CC)C(=O)NC(=O)NC1=O          inactive
26                      CCC[N+](CCC)(CCC)CCC          inactive
27  CCCCC(CC)CO[N+](=O)[O-] (configuration not stated)          inactive
28    CCOC(=O)c1cn2nc(OP(=S)(OCC)OCC)cc2nc1C          inactive
29            O=[N+]([O-])c1cc(Cl)c(Cl)cc1Cl          inactive
30                     O=C(O)c1cc(I)cc(I)c1I          inactive
31                NP(N)(=O)NC(=O)c1ccc(F)cc1          inactive
32  C[N+]1(CCF)[C@@H]2CC[C@H]1CC(OC(=O)C(O)(c1ccccc1)c1ccccc1)C2 (some centres not stated)          inactive
33    CCCC1CCCCN1 (configuration not stated)          inactive
34                                 Cc1ccccc1          inactive
35  CC(C)(C)NCC(O)c1cc(Cl)c(N)c(C(F)(F)F)c1 (configuration not stated)          inactive
36                         CCOP(=O)(O)C(N)=O          inactive
37  CN1CC[C@]23c4c5ccc(O)c4O[C@H]2[C@@H](O)C=C[C@H]3[C@H]1C5          inactive
38                      NC(=S)c1c(Cl)cccc1Cl          inactive
39  COC1CC(=C(c2cccs2)c2cccs2)C[N+](C)(C)C1 (configuration not stated)          inactive
40                     c1ccc2c(c1)sc1ccccc12          inactive
41   CCCN(CCOc1c(Cl)cc(Cl)cc1Cl)C(=O)n1ccnc1          inactive
42             N#CC1(N=NC2(C#N)CCCCC2)CCCCC1          inactive
43  COP(=O)(OC)OC(Br)C(Cl)(Cl)Br (configuration not stated)          inactive
44  CC(C)(C)NCC(O)c1ccccc1Cl (configuration not stated)          inactive
45                             Oc1cccc(Cl)c1          inactive
46                    O=C(Cc1ccccc1)c1ccccc1          inactive
47  O=C(NCNC(=O)NC1C(=O)NC(=O)N1CO)NC1C(=O)NC(=O)N1CO (configuration not stated)          inactive

* * *

Target: Estrogen receptor (Homo sapiens)
Assay: qHTS assay to identify small molecule agonists of the estrogen receptor alpha (ER-alpha) signaling pathway in the presence of an antagonist (AID 1259383); note: nearly all actives have a fitted effect of over 15% in size
Details: VM7Luc4E2 cells, ERE-luciferase, +ICI-182,780, 22 h; series mostly up to 92.4 µM
Activity calls are given as the source filed them. Calls follow the shape of the full dose curve.
Possible outcomes: active, inactive

> print(dat)
                                    compound  class.assignment
 1              C=C(C)C(=O)OCCCCOC(=O)C(=C)C          inactive
 2  CCOP(=S)(OCC)Oc1ccc(S(C)=O)cc1 (stereo unspecified)          inactive
 3                          Clc1ccc2ccccc2c1          inactive
 4  O=C([O-])c1ccccn1.O=C([O-])c1ccccn1.O=C([O-])c1ccccn1.[Cr+3]          inactive
 5  COP(=O)(OC)OC(Br)C(Cl)(Cl)Br (stereo unspecified)          inactive
 6                   C=CC(=O)NC(C)(C)CC(C)=O          inactive
 7  COC1CC(=C(c2cccs2)c2cccs2)C[N+](C)(C)C1 (stereo unspecified)          inactive
 8             COc1cc(C[C@@H](C)N)c(OC)cc1Br          inactive
 9                           Nc1cccc2ccccc12          inactive
10                  CCC1(CC)C(=O)NC(=O)NC1=O          inactive
11  CC(C)(C)NCC(O)c1ccccc1Cl (stereo unspecified)          inactive
12                             C=CCc1ccccc1O          inactive
13                          COC(=O)Cc1ccccc1          inactive
14                         CCOP(=O)(O)C(N)=O          inactive
15  O=C(O)C(O)C(O)C(=O)O (stereo unspecified)          inactive
16                  CON(C)C(=O)Nc1ccc(Cl)cc1          inactive
17                     c1ccc2c(c1)sc1ccccc12          inactive
18                         CCCCCCCCn1sccc1=O          inactive
19  CC(C)C1(C)N=C(c2ncccc2C(=O)O)NC1=O (stereo unspecified)          inactive
20                      FC(Cl)(Cl)C(F)(Cl)Cl          inactive
21  CCCC[N+]1(C)[C@@H]2CC(OC(=O)[C@H](CO)c3ccccc3)C[C@H]1[C@@H]1O[C@@H]12 (stereo partly specified)          inactive
22  CC(C)(C)NCC(O)c1cc(Cl)c(N)c(C(F)(F)F)c1 (stereo unspecified)          inactive
23  COc1cc(CC(C)N)c(OC)cc1Br (stereo unspecified)          inactive
24  CN1C(=O)CN=C(c2ccccc2)c2cc([N+](=O)[O-])ccc21          inactive
25            Cc1nc2ccccc2c(=O)n1-c1ccccc1Cl          inactive
26  CCC(=O)O[C@@H]1C=C2CCC3C(CCC4(C)C3CC[C@@H]4OC(=O)CC)C2CC1 (stereo partly specified)            active
27                                   CCCCCBr          inactive
28                                    O=CC=O          inactive
29  CCCC(C)(COC(N)=O)COC(=O)NC(C)C (stereo unspecified)          inactive
30                          CCCCNC(=O)OCC#CI          inactive
31  COc1ccc(C(O)(c2cncnc2)C2CC2)cc1 (stereo unspecified)          inactive
32  CCOc1cccc(C2(N3CCN(c4ccccc4)CC3)CCC(C)CC2)c1 (stereo unspecified)          inactive
33  C#C[C@]1(O)CC[C@H]2[C@@H]3CCC4=CC(=O)CCC4=C3C=C[C@@]21CC            active
34                 Cc1nnc(-c2ccccc2)c(=O)n1N          inactive
35  O=C(O)C(F)(F)C(F)(F)C(F)(F)C(F)(F)C(F)(F)F          inactive
36                                Clc1ccccc1          inactive
37                             Oc1cccc(Cl)c1          inactive
38                      NC(=S)c1c(Cl)cccc1Cl          inactive
39  O=[N+]([O-])O[C@H]1CO[C@H]2[C@@H]1OC[C@H]2O[N+](=O)[O-]          inactive
40  O=P(OCC(Br)CBr)(OCC(Br)CBr)OCC(Br)CBr (stereo unspecified)          inactive
41                                CCC(C)(C)O          inactive
42  C=CCN1C[C@H](C)N([C@H](c2ccc(C(=O)N(CC)CC)cc2)c2cccc(OC)c2)C[C@H]1C          inactive
43                    Cc1cccc(C)c1NC1=NCCCS1          inactive
44    C[N+](C)(C)CC1CO1 (stereo unspecified)          inactive
45                CC(C)c1ccc(NC(=O)N(C)C)cc1          inactive
46                                  NC(=O)CF          inactive
